All figures here come from paper PMC11845761.

Test: Tissue concentrations of capecitabine and its metabolites 2 h after oral capecitabine in CES2-modified mice
Type: in vivo, mouse
Settings: female, mouse, small intestine tissue, oral, 500 mg/kg, female wild-type mice, oral capecitabine 500 mg/kg, read-out: CSI (small intestine tissue concentration)
OBSERVABLE: concentration at 2 h (ng/g)

O=c1[nH]cc(F)c(=O)[nH]1 [5-FU, 5-fluorouracil, reference compound] | 3020

1: C[C@H]1O[C@@H](n2cc(F)c(N)nc2=O)[C@H](O)[C@@H]1O [5’-DFCR, 5’-deoxy-5-fluorocytidine]
2: CCCCCOC(=O)Nc1nc(=O)n([C@@H]2O[C@H](C)[C@@H](O)[C@H]2O)cc1F [Capecitabine, reference compound]
Parameter metric = concentration at 2 h. Return the lower-valued option from 1 and 2 . Answer by stating the label of the chosen item. 2
(2: 1630 ng/g, 1: 4510 ng/g)
